# Test system: TAB109
# assaySummary: qHTS profiling for inhibitors of Plasmodium falciparum proliferation (AID 504749); further: nearly all actives have a fitted effect of over 60% in size; further: potency means the concentration at half of the fitted maximal effect
# runConditions: P. falciparum in erythrocytes, SYBR Green DNA, 72 h; series mostly up to 28.7 µM
Inconclusive results are not listed. Active and inactive are the calls of the source. The call rests on the fitted dose curve; in most records, active means well fitted inhibition curve with a large enough effect; inconclusive means small, poorly fitted or top-dose-only effect; inactive means flat fitted curve, though single readings scatter.
endpointLabel: Potency

CN(C)CCc1c[nH]c2ccc(CS(=O)(=O)N3CCCC3)cc12 ... inactive
NC(=O)N1c2ccccc2CC(=O)c2ccccc21 ... inactive
CCN(C)C(=O)Oc1cccc([C@H](C)N(C)C)c1 ... inactive
Cc1ccnc2c1NC(=O)c1cccnc1N2C1CC1 ... inactive
O=c1cc(O)c(Cl)c[nH]1 ... inactive
S=P(N1CC1)(N1CC1)N1CC1 ... inactive
CC[C@H](C)C(=O)O[C@H]1C[C@@H](C)C=C2C=C[C@H](C)[C@H](CC[C@@H]3C[C@@H](O)CC(=O)O3)[C@H]21 ... inactive
CC(C)OC(=O)C(C(=O)OC(C)C)=C1SC=CS1 ... inactive
Nc1[nH]c(=O)ncc1F ... inactive
CC1=NN(c2ccccc2)C(=O)C1 ... inactive

For the compound CCOC(=O)[C@H](CCc1ccccc1)N[C@H]1CS[C@H](c2cccs2)CN(CC(=O)O)C1=O , give its reported Potency.
inactive

For the compound Cc1noc(NS(=O)(=O)c2ccc(N)cc2)c1C , give its reported Potency.
inactive

For the compound Nc1nc(N)nc(-c2cc(Cl)ccc2Cl)n1 , give its reported Potency.
inactive

For the compound O=C(O)c1cc(=O)[nH]c(=O)[nH]1 , give its reported Potency.
inactive

For the compound CN1CCN(c2c(F)cc3c(=O)c(C(=O)O)cn4c3c2OCN4C)CC1 , give its reported Potency.
inactive

----------
# assaySummary: Quantitative High-Throughput drug screen in 47 multiple myeloma cell lines against the NCATS MIPE library collection: OPM2_DSMZ cell viability assay (AID 1919872); further: nearly all actives have a fitted effect of over 30% in size; further: potency means the concentration at half of the fitted maximal effect
# runConditions: OPM2 myeloma viability, CellTiter-Glo ATP luminescence, 48 h; series mostly up to 45.8 µM
# Source text: PI: Beverly A. Mock Ph.D. Laboratory of Cancer Biology and Genetics, Center for Cancer Research, National Cancer Institute, National Institute of Health, Bethesda, Maryland […] 5; Detector; 425V; Luminescence; Viewlux PerkinElmer. […] 1. […] Briefly, the corresponding myeloma cell lines were screened in 1,536-well plates with 500 cells, 5-uL per well for inhibition of cell viability (assessed by measuring ATP levels with CellTiterGlo). […]
Inconclusive results are not listed. Active and inactive are the calls of the source. The call rests on the fitted dose curve; in most records, active means well fitted cell-killing curve with a large enough effect; inconclusive means small, poorly fitted or top-dose-only effect, or effect the other way; inactive means no such curve, though single readings can be large or run the other way.
endpointLabel: Potency

Below, each entry is followed by its recorded Potency result.
CN1CCN(c2c(F)cc3c(=O)c(C(=O)O)cn4c3c2OCN4C)CC1 ... inactive
O=S(=O)(c1cccc2cnccc12)N1CCCNCC1 ... inactive
Nc1[nH]c(=O)ncc1F ... inactive
COc1nc(N)nc2c1ncn2[C@@H]1O[C@H](CO)[C@@H](O)[C@@H]1O ... 469 nM (active)

For the compound CCCc1nc(C)c2c(=O)[nH]c(-c3cc(S(=O)(=O)N4CCN(CC)CC4)ccc3OCC)nn12 , give its reported Potency.
5900 nM (active)

For the compound CC(N)C12CC3CC(CC(C3)C1)C2 (centres undefined) , give its reported Potency.
inactive

----------
# Test system: ATS95
# assaySummary: qHTS profiling for inhibitors of Plasmodium falciparum proliferation (AID 504749); further: nearly all actives have a fitted effect of over 60% in size
# runConditions: P. falciparum in erythrocytes, SYBR Green DNA, 72 h; series mostly up to 28.7 µM
Records with an inconclusive call do not appear. The source made the active and inactive calls. The call rests on the fitted dose curve; in most records, active means well fitted inhibition curve with a large enough effect; inconclusive means small, poorly fitted or top-dose-only effect; inactive means flat fitted curve, though single readings scatter.
Choose one outcome from this list and give only that: 1.0 (active), 0.0 (inactive)

In this assay, the call recorded for C[C@@H](NCCCc1cccc(C(F)(F)F)c1)c1cccc2ccccc12 was what?
1.0

In this assay, the call recorded for CNC1CCCN(c2c(F)cc3c(=O)c(C(=O)O)cn(C4CC4)c3c2OC)C1 (stereo not given) was what?
0.0

In this assay, the call recorded for CN(CCOc1ccc(CC2SC(=O)NC2=O)cc1)c1ccccn1 (stereo not given) was what?
0.0

In this assay, the call recorded for Nc1[nH]c(=O)ncc1F was what?
0.0

In this assay, the call recorded for CNS(=O)(=O)Cc1ccc2[nH]cc(CCN(C)C)c2c1 was what?
0.0

In this assay, the call recorded for CNNCc1ccc(C(=O)NC(C)C)cc1 was what?
0.0

In this assay, the call recorded for COc1ncnc(NS(=O)(=O)c2ccc(N)cc2)c1OC was what?
0.0

In this assay, the call recorded for CCCc1cc(C(N)=S)ccn1 was what?
0.0

In this assay, the call recorded for CN(C)CCc1c[nH]c2ccc(CS(=O)(=O)N3CCCC3)cc12 was what?
0.0

In this assay, the call recorded for COc1ccc2cc3[n+](cc2c1OC)CCc1cc2c(cc1-3)OCO2 was what?
1.0

In this assay, the call recorded for Cc1noc(NS(=O)(=O)c2ccc(N)cc2)c1C was what?
0.0

In this assay, the call recorded for C[C@]12C=CC(=O)C=C1CC[C@@H]1[C@@H]2C(=O)C[C@@]2(C)[C@H]1CC[C@]2(O)C(=O)CO was what?
0.0

In this assay, the call recorded for CCc1cc(C(N)=S)ccn1 was what?
0.0

In this assay, the call recorded for O=NN(CCCl)C(=O)NC1CCCCC1 was what?
0.0

In this assay, the call recorded for COc1cccc(N(C)C(=S)Oc2ccc3c(c2)CCCC3)n1 was what?
0.0

In this assay, the call recorded for CC(C)NCC(O)c1ccc(NS(C)(=O)=O)cc1 (stereo not given) was what?
0.0

In this assay, the call recorded for Cc1cccc(N(C)C(=S)Oc2ccc3ccccc3c2)c1 was what?
0.0

In this assay, the call recorded for CC1=NN(c2ccccc2)C(=O)C1 was what?
0.0

In this assay, the call recorded for NC(N)=NC(N)=NCCc1ccccc1 was what?
0.0

In this assay, the call recorded for O=P(O)(O)C(O)(Cc1cccnc1)P(=O)(O)O was what?
0.0

In this assay, the call recorded for COc1nc(N)nc2c1ncn2[C@@H]1O[C@H](CO)[C@@H](O)[C@@H]1O was what?
0.0

In this assay, the call recorded for CCCN[C@H]1CCc2nc(N)sc2C1 was what?
0.0

In this assay, the call recorded for CCOC(=O)[C@H](CCc1ccccc1)N[C@H]1CS[C@H](c2cccs2)CN(CC(=O)O)C1=O was what?
0.0

In this assay, the call recorded for CC(C)(Sc1cc(C(C)(C)C)c(O)c(C(C)(C)C)c1)Sc1cc(C(C)(C)C)c(O)c(C(C)(C)C)c1 was what?
0.0

In this assay, the call recorded for Cn1nnc2c(C(N)=O)ncn2c1=O was what?
0.0

Origin of the recorded values: PubChem BioAssay (NCATS)
